Where do these numbers come from? They come from ChEMBL document CHEMBL4622986.

target: DNA polymerase beta (Homo sapiens, UniProt P06746); assay: Inhibition of human DNA polymerase beta at 100 uM using calf DNA as substrate by microbeta scintillation counting method relative to control; details: human DNA polymerase beta enzyme, probe calf DNA
assay readout: inhibition at 100 µM (%)

Sample answers from the record:
• C[C@@]1(O)[C@H](O)[C@@H](COP(=O)(O)OP(=O)(O)OP(=O)(O)O)O[C@H]1n1cnc2c(=O)[nH]c(N)nc21 = 15.3
• C[C@@]1(Cl)[C@H](O)[C@@H](COP(=O)(O)OP(=O)(O)OP(=O)(O)O)O[C@H]1n1cnc2c(=O)[nH]c(N)nc21 = 21.1

1. C[C@]1(O)[C@H](n2cnc3c(=O)[nH]c(N)nc32)O[C@](F)(COP(=O)(O)OP(=O)(O)OP(=O)(O)O)[C@H]1O
2. C[C@@]1(F)[C@H](O)[C@@H](COP(=O)(O)OP(=O)(O)OP(=O)(O)O)O[C@H]1n1cnc2c(=O)[nH]c(N)nc21
3. C[C@@]1(O)[C@H](F)[C@@H](COP(=O)(O)OP(=O)(O)OP(=O)(O)O)O[C@H]1n1cnc2c(=O)[nH]c(N)nc21
Q: Please order the records by their reported inhibition at 100 µM, lowest number first. // list labels; follow requested order
A: 3, 2, 1
(3: 8.4%, 2: 14.3%, 1: 20.9%)
